The measured values listed here are drawn from patent US11401278B2.

Test system: SUDHL5
Assay: Induction of cytotoxicity (Assay 6), SUDHL5
Settings: read-out: Cytotox SUDHL5 [M] (median) IC50, CellTiter-Glo, 5 hours, SUDHL5
quantity-name: IC50 (M)

[[record]]
compound = "Cc1c2c(nn1C)CN(C)S(=O)(=O)CCCn1c(C(=O)O)c(CCCOc3cccc4ccccc34)c3cccc-2c31 (single isomer, unassigned; enantiomer 2) [Example 12]"
tested_on = "SUDHL5"
quantity_name = "IC50"
value_reported = "2.7e-05"

[[record]]
compound = "Cc1c2c(nn1C)CN(C)S(=O)(=O)CCCn1c(C(=O)O)c(CCCOc3cccc4ccccc34)c3cccc-2c31 (single isomer, unassigned; enantiomer 1) [Example 11]"
tested_on = "SUDHL5"
quantity_name = "IC50"
value_reported = "1.6e-06"

[[record]]
compound = "Cc1c2c(nn1C)CN(C1CC1)S(=O)(=O)CCCn1c(C(=O)O)c(CCCOc3cccc4ccccc34)c3ccc(Cl)c-2c31 [Example 40]"
tested_on = "SUDHL5"
quantity_name = "IC50"
value_reported = "2e-06"

[[record]]
compound = "CCc1c2c(nn1C)CN(CC)S(=O)(=O)CCCn1c(C(=O)O)c(CCCOc3cccc4cc(F)ccc34)c3ccc(Cl)c-2c31 (single isomer, unassigned; enantiomer 1) [Example 57]"
tested_on = "SUDHL5"
quantity_name = "IC50"
value_reported = "1.1e-07"

[[record]]
compound = "Cc1c2c(nn1C)CN(C1CC1)S(=O)(=O)CCCn1c(C(=O)O)c(CCCOc3cccc4cc(F)ccc34)c3ccc(Cl)c-2c31 (single isomer, unassigned; enantiomer 2) [Example 43]"
tested_on = "SUDHL5"
quantity_name = "IC50"
value_reported = "9.6e-06"

[[record]]
compound = "CCc1c2c(nn1C)C(CCC1CCOCC1)N(C)S(=O)(=O)CCCn1c(C(=O)O)c(CCCOc3cccc4cc(F)ccc34)c3ccc(Cl)c-2c31 (single isomer, unassigned; enantiomer 1) [Example 61]"
tested_on = "SUDHL5"
quantity_name = "IC50"
value_reported = "2.8e-08"

[[record]]
compound = "Cc1c2c(nn1C)C(CCN1CCOCC1)N(C)S(=O)(=O)CCCn1c(C(=O)O)c(CCCOc3cccc4cc(F)ccc34)c3ccc(Cl)c-2c31 (single isomer, unassigned; enantiomer 2) [Example 67]"
tested_on = "SUDHL5"
quantity_name = "IC50"
value_reported = "9.8e-09"

[[record]]
compound = "Cc1c2c(nn1C)CN(C)S(=O)(=O)CCCn1c(C(=O)O)c(CCCOc3cccc4ccccc34)c3ccc(Cl)c-2c31 (single isomer, unassigned; enantiomer 1) [Example 5]"
tested_on = "SUDHL5"
quantity_name = "IC50"
value_reported = "4.9e-07"

[[record]]
compound = "CCc1c2c(nn1C)C(CCC1CCOCC1)N(C)S(=O)(=O)CCCn1c(C(=O)O)c(CCCOc3cccc4cc(F)ccc34)c3ccc(Cl)c-2c31 (single isomer, unassigned; enantiomer 2) [Example 62]"
tested_on = "SUDHL5"
quantity_name = "IC50"
value_reported = "5.3e-06"

[[record]]
compound = "CCc1c2c(nn1C)CN(C1CC1)S(=O)(=O)CCCn1c(C(=O)O)c(CCCOc3cccc4cc(F)ccc34)c3ccc(Cl)c-2c31 (single isomer, unassigned; enantiomer 2) [Example 55]"
tested_on = "SUDHL5"
quantity_name = "IC50"
value_reported = "8.2e-06"

[[record]]
compound = "Cc1c2c(nn1C)CN(C)S(=O)(=O)CCCn1c(C(=O)O)c(CCCOc3cccc4ccccc34)c3ccc(Cl)c-2c31 (single isomer, unassigned; enantiomer 2) [Example 6]"
tested_on = "SUDHL5"
quantity_name = "IC50"
value_reported = "1.2e-05"

[[record]]
compound = "CCc1c2c(nn1C)CN(C1CC1)S(=O)(=O)CCCn1c(C(=O)O)c(CCCOc3cccc4cc(F)ccc34)c3ccc(Cl)c-2c31 (single isomer, unassigned; enantiomer 1) [Example 54]"
tested_on = "SUDHL5"
quantity_name = "IC50"
value_reported = "3.6e-07"

